Biological target: T1, GST-β-catenin (UniProt P35222 133-665)
T1 construct: range 133-665; GST fusion purified on glutathione-agarose and used in the FP assays; also called GST-β-catenin(133-665); pGEX-β-catenin(133-665); not shown: glutathione S-transferase (GST) tag encoded by the pGEX plasmid
T1 sequence (looked up): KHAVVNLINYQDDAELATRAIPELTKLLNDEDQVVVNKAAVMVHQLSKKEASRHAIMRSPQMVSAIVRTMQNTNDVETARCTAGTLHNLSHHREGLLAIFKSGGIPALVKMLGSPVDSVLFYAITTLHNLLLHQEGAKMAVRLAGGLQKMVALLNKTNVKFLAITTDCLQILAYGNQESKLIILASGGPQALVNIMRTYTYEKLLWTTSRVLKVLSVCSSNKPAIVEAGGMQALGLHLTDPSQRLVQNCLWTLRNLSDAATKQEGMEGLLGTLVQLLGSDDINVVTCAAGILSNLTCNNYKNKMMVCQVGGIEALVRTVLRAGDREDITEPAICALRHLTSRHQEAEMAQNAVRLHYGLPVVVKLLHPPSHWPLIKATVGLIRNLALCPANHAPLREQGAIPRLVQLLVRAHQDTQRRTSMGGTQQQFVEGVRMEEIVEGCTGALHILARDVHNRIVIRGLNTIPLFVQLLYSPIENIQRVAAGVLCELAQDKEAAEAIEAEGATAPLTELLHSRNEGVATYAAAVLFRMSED
Experiment: Table 7, binding to β-catenin; FP competition as for peptides 2-5 presumed
Positions of bridges follow the written chain, without caps; N, C: chain ends. Non-standard residues stand in square brackets, D forms with d. miniPEG = polyethylene glycol moiety (linker unit); Bta = N[C@@H](Cc1csc2ccccc12)C(=O)O; Tle = CC(C)(C)[C@H](N)C(=O)O; Dap = NC[C@H](N)C(=O)O
readout kind: pIC50
Would you please state pIC50, meaning minus log10 of the concentration in mol/L, as a bare number?

Problem: // query pIC50 value for entry Ac-YPEDILDKHLQQV[Bta]T[miniPEG][miniPEG][Dap]-NH2 (lactam 4-8) [Peptide 21]
Result: 6.48

Problem: Item: XXRXRXQGGYPEDILDKHLQRXXL (not fully specified; N-terminal CPP9-(miniPEG)2; Asp-Lys staple; Z = tert-leucine; 2-Nal = 2-napthylalanine; C-terminal amide, also called CPP9-(miniPEG)2-GGYPEDILDKHLQRZ(2-Nal)L-NH2) [Peptide 15]
Result: 7.10

Problem: Item: Ac-YPEDILDKHLQSV[Bta][dS][miniPEG][miniPEG][Dap]-NH2 (lactam 4-8) [Peptide 23]
Result: 6.25

Problem: Item: XXRXRXQGGYPEDILDKHLQRXXL (not fully specified; N-terminal CPP9-(miniPEG)2; Asp-Lys staple; Z = tert-leucine; 3-Bta = 3-benzothienyl-l-alanine; C-terminal amide, also called CPP9-(miniPEG)2-GGYPEDILDKHLQRZ(3-Bta)L-NH2) [Peptide 14]
Result: 7.20

Problem: Item: Ac-YPEDILDKHLQSV[Bta]T[miniPEG][miniPEG][Dap]-NH2 (lactam 4-8) [Peptide 19]
Result: 6.42

Problem: Item: Ac-GGYPEDILDKHLQR[Tle][Bta]L-NH2 (lactam 6-10, also called Ac-GGYPEDILDKHLQRZ(3-Bta)L-NH2) [Peptide 11]
Result: 7.19
